Quick reference for binding signal among some sequences
Biological target: GST-Co-NF-kB (Capsaspora owczarzaki, UniProt F1ARL5 200-546)
Sequence: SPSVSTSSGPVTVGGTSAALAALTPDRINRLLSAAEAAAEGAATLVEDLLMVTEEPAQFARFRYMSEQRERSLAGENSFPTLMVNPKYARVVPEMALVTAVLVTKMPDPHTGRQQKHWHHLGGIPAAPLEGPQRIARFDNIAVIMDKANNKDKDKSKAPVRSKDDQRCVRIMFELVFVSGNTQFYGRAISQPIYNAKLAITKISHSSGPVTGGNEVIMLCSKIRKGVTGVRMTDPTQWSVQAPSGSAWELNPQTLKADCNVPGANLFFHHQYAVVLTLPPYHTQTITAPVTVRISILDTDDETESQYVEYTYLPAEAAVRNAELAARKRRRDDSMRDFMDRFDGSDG
Test: protein-binding microarray (PBM); PBM: ~300 nM protein, 6 mM HEPES pH 7.8, 80 mM KCl, 0.5 mM EDTA, 0.5 mM EGTA, 6% glycerol, 35 ng/ul poly-dIdC, 1% milk, 1 h, room temperature; Ap Aiptasia and Nv Nematostella (sea anemones) / Co Capsaspora / Aq Amphimedon (sponge) / Dm Drosophila / Hu human; RHD is the Rel homology domain; high values mean tight binding
Details: dsDNA, one strand shown
State the value, then name its unit.

>  <SEQUENCE RECORD>
CCGATTAACATCACATATTTCCCTGATGTTAATCGGGTCTTGATTCGCTTGACGCTGCTG

>  <READING>
4.94 z-score

$$$$
>  <SEQUENCE RECORD>
CCGATTAACATCAGGGGAGTCCATGATGTTAATCGGGTCTTGATTCGCTTGACGCTGCTG

>  <READING>
3.05 z-score

$$$$
>  <SEQUENCE RECORD>
CCGATTAACATCAAGGGGGATTCTGATGTTAATCGGGTCTTGATTCGCTTGACGCTGCTG

>  <READING>
4.93 z-score

$$$$
>  <SEQUENCE RECORD>
CCGATTAACATCATAAAATCCCATGATGTTAATCGGGTCTTGATTCGCTTGACGCTGCTG

>  <READING>
1.47 z-score

$$$$
>  <SEQUENCE RECORD>
CCGATTAACATCAGGGGAGGTTATGATGTTAATCGGGTCTTGATTCGCTTGACGCTGCTG

>  <READING>
4.52 z-score

$$$$
>  <SEQUENCE RECORD>
CCGATTAACATCAGGATTCCCCCTGATGTTAATCGGGTCTTGATTCGCTTGACGCTGCTG

>  <READING>
8.01 z-score

$$$$

Lookup: Query the reported binding signal for GST-Co-NF-kB (Capsaspora owczarzaki, UniProt F1ARL5 200-546); item: CCGATTAACATCAGGCTATTCCCTGATGTTAATCGGGTCTTGATTCGCTTGACGCTGCTG
Found: 1.6 z-score

Lookup: Query the reported binding signal for GST-Co-NF-kB (Capsaspora owczarzaki, UniProt F1ARL5 200-546); item: CCGATTAACATCAGAAGTTCCCCTGATGTTAATCGGGTCTTGATTCGCTTGACGCTGCTG
Found: 7.36 z-score

Lookup: Query the reported binding signal for GST-Co-NF-kB (Capsaspora owczarzaki, UniProt F1ARL5 200-546); item: CCGATTAACATCAGGGATTTCCATGATGTTAATCGGGTCTTGATTCGCTTGACGCTGCTG
Found: 1.29 z-score

Lookup: Query the reported binding signal for GST-Co-NF-kB (Capsaspora owczarzaki, UniProt F1ARL5 200-546); item: CCGATTAACATCAAGTACCCCCCTGATGTTAATCGGGTCTTGATTCGCTTGACGCTGCTG
Found: 4.81 z-score

Lookup: Query the reported binding signal for GST-Co-NF-kB (Capsaspora owczarzaki, UniProt F1ARL5 200-546); item: CCGATTAACATCAAACAATCCCCTGATGTTAATCGGGTCTTGATTCGCTTGACGCTGCTG
Found: 3.49 z-score

Lookup: Query the reported binding signal for GST-Co-NF-kB (Capsaspora owczarzaki, UniProt F1ARL5 200-546); item: CCGATTAACATCAATTCCCCCCATGATGTTAATCGGGTCTTGATTCGCTTGACGCTGCTG
Found: 9.55 z-score

Lookup: Query the reported binding signal for GST-Co-NF-kB (Capsaspora owczarzaki, UniProt F1ARL5 200-546); item: CCGATTAACATCACAACTTTCCCTGATGTTAATCGGGTCTTGATTCGCTTGACGCTGCTG
Found: 4.34 z-score
